Each recorded value in this set is attributed to ChEMBL document CHEMBL1287692.

- System: Staphylococcus epidermidis
- testDetails: Antibacterial activity against oxymycin-, gentamicin-, levofloxacin-resistant Staphylococcus epidermidis 1269676
- Format: functional
# MIC per record follows

>>> observed("NCC[C@@H](O)C(=O)N[C@H]1C[C@H](N)[C@@H](O[C@H]2O[C@H](CO)[C@@H](O)[C@H](O)[C@H]2N)[C@@H](O[C@H]2O[C@H](CO)[C@@H](O[C@H]3O[C@@H](CN)[C@@H](O)[C@H](O)[C@H]3N)[C@H]2OCCNCCc2ccccc2)[C@H]1O")
"< 0.12 µg/mL"

# input for lookup
QUERY: For the record NCC[C@H](O)C(=O)N[C@@H]1C[C@H](N)[C@@H](O[C@H]2O[C@H](CO)CC[C@H]2N)[C@H](O[C@@H]2O[C@H](CO)[C@@H](O[C@H]3O[C@@H](CN)[C@@H](O)[C@H](O)[C@H]3N)[C@H]2OCCNCCc2ccccc2)[C@H]1O , what value of MIC is listed for Staphylococcus epidermidis?
RESULT: < 0.12 µg/mL

---

- Tested on: Staphylococcus aureus
- testDetails: Antibacterial activity against Staphylococcus aureus ATCC 13709
- Type: functional
measuredAttribute: MIC (µg/mL)
Give a bare numeral; the unit µg/mL is implied.

Some molecules with recorded MIC:
>>> observed("NCC[C@@H](O)C(=O)N[C@H]1C[C@H](N)[C@@H](O[C@H]2O[C@H](CO)[C@@H](O)[C@H](O)[C@H]2N)[C@@H](O[C@H]2O[C@H](CO)[C@@H](O[C@H]3O[C@@H](CN)[C@@H](O)[C@H](O)[C@H]3N)[C@H]2OCCNCCc2ccccc2)[C@H]1O")
0.6
>>> observed("NC[C@@H]1O[C@H](O[C@H]2[C@@H](O)[C@H](O[C@@H]3[C@@H](O)[C@H](N)C[C@H](N)[C@H]3O[C@H]3O[C@H](CO)[C@@H](O)[C@H](O)[C@H]3N)O[C@@H]2CO)[C@H](N)[C@@H](O)[C@@H]1O")
1
>>> observed("NC[C@@H]1O[C@H](O[C@H]2[C@@H](O)[C@H](O[C@@H]3[C@@H](O)[C@H](N)C[C@H](N)[C@H]3O[C@H]3O[C@H](CO)CC[C@H]3N)O[C@@H]2CO)[C@H](N)[C@@H](O)[C@@H]1O")
5
>>> observed("NCC[C@H](O)C(=O)N[C@@H]1C[C@H](N)[C@@H](O[C@H]2O[C@H](CO)[C@@H](O)[C@H](O)[C@H]2N)[C@H](O[C@@H]2O[C@H](CO)[C@@H](O[C@H]3O[C@@H](CN)[C@@H](O)[C@H](O)[C@H]3N)[C@H]2O)[C@H]1O")
1.3
>>> observed("NC[C@@H]1O[C@H](O[C@H]2[C@@H](O)[C@H](O[C@@H]3[C@@H](O)[C@H](N)C[C@H](N)[C@H]3O[C@H]3O[C@H](CN)[C@@H](O)[C@H](O)[C@H]3N)O[C@@H]2CO)[C@H](N)[C@@H](O)[C@@H]1O")
1
>>> observed("NC[C@@H]1O[C@H](O[C@H]2[C@@H](OCCNCCc3ccccc3)[C@H](O[C@@H]3[C@@H](O)[C@H](N)C[C@H](N)[C@H]3O[C@H]3O[C@H](CO)[C@@H](O)[C@H](O)[C@H]3N)O[C@@H]2CO)[C@H](N)[C@@H](O)[C@@H]1O")
0.3

QUERY: What MIC value was documented for this molecule, NCC[C@H](O)C(=O)N[C@@H]1C[C@H](N)[C@@H](O[C@H]2O[C@H](CN)[C@@H](O)[C@H](O)[C@H]2N)[C@H](O[C@@H]2O[C@H](CO)[C@@H](O[C@H]3O[C@@H](CN)[C@@H](O)[C@H](O)[C@H]3N)[C@H]2O)[C@H]1O ?
RESULT: 2.5

QUERY: What MIC value was documented for this molecule, NC[C@@H]1O[C@H](O[C@H]2[C@@H](OCCNCCc3ccccc3)[C@@H](O[C@H]3[C@@H](O)[C@@H](N)C[C@@H](N)[C@H]3O[C@H]3O[C@H](CO)CC[C@H]3N)O[C@@H]2CO)[C@H](N)[C@@H](O)[C@@H]1O ?
RESULT: 1

QUERY: What MIC value was documented for this molecule, NCC[C@H](O)C(=O)N[C@@H]1C[C@H](N)[C@@H](O[C@H]2O[C@H](CO)CC[C@H]2N)[C@H](O[C@@H]2O[C@H](CO)[C@@H](O[C@H]3O[C@@H](CN)[C@@H](O)[C@H](O)[C@H]3N)[C@H]2OCCNCCc2ccccc2)[C@H]1O ?
RESULT: 0.6

---

# MIC per record follows
- System: Staphylococcus epidermidis
- testDetails: Antibacterial activity against oxymycin and gentamicin-resistant Staphylococcus epidermidis 1269677
- Type: functional
Give a bare numeral; the unit µg/mL is implied.

Some compounds with recorded MIC:
>>> observed("NCC[C@H](O)C(=O)N[C@@H]1C[C@H](N)[C@@H](O[C@H]2O[C@H](CO)[C@@H](O)[C@H](O)[C@H]2N)[C@H](O[C@@H]2O[C@H](CO)[C@@H](O[C@H]3O[C@@H](CN)[C@@H](O)[C@H](O)[C@H]3N)[C@H]2O)[C@H]1O")
16
>>> observed("CN[C@@H]1[C@@H](O)[C@@H](O[C@@H]2[C@@H](O)[C@H](O[C@H]3O[C@H]([C@@H](C)NC)CC[C@H]3N)[C@@H](N)C[C@H]2N)OC[C@]1(C)O")
16

QUERY: What MIC value was documented for this compound, NCC[C@H](O)C(=O)N[C@@H]1C[C@H](N)[C@@H](O[C@H]2O[C@H](CN)[C@@H](O)[C@H](O)[C@H]2O)[C@H](O)[C@H]1O[C@H]1O[C@H](CO)[C@@H](O)[C@H](N)[C@H]1O ?
RESULT: 4

---

# MIC per record follows
- Test system: Staphylococcus aureus
- testDetails: Antibacterial activity against vancomycin-, ciprofloxacin-, gentamicin-resistant Staphylococcus aureus 1269615
- Format: functional
Give a bare numeral; the unit µg/mL is implied.

Some compounds with recorded MIC:
>>> observed("NCC[C@H](O)C(=O)N[C@@H]1C[C@H](N)[C@@H](O[C@H]2O[C@H](CO)CC[C@H]2N)[C@H](O[C@@H]2O[C@H](CO)[C@@H](O[C@H]3O[C@@H](CN)[C@@H](O)[C@H](O)[C@H]3N)[C@H]2OCCNCCc2ccccc2)[C@H]1O")
0.25
>>> observed("CN[C@@H]1[C@@H](O)[C@@H](O[C@@H]2[C@@H](O)[C@H](O[C@H]3O[C@H]([C@@H](C)NC)CC[C@H]3N)[C@@H](N)C[C@H]2N)OC[C@]1(C)O [GENTAMICIN C1]")
32
>>> observed("NCC[C@@H](O)C(=O)N[C@H]1C[C@H](N)[C@@H](O[C@H]2O[C@H](CO)[C@@H](O)[C@H](O)[C@H]2N)[C@@H](O[C@H]2O[C@H](CO)[C@@H](O[C@H]3O[C@@H](CN)[C@@H](O)[C@H](O)[C@H]3N)[C@H]2OCCNCCc2ccccc2)[C@H]1O")
64

QUERY: For the record NCC[C@H](O)C(=O)N[C@@H]1C[C@H](N)[C@@H](O[C@H]2O[C@H](CN)[C@@H](O)[C@H](O)[C@H]2O)[C@H](O)[C@H]1O[C@H]1O[C@H](CO)[C@@H](O)[C@H](N)[C@H]1O [AMIKACIN] , what value of MIC is listed for Staphylococcus aureus?
RESULT: 16

---

# MIC per record follows
- Test system: Staphylococcus aureus
- testDetails: Antibacterial activity against vancomycin-sensitive and oxymycin-, ciprofloxacin-, gentamicin-resistant Staphylococcus aureus 9269619
- Format: functional

Some molecules with recorded MIC:
>>> observed("NCC[C@H](O)C(=O)N[C@@H]1C[C@H](N)[C@@H](O[C@H]2O[C@H](CN)[C@@H](O)[C@H](O)[C@H]2O)[C@H](O)[C@H]1O[C@H]1O[C@H](CO)[C@@H](O)[C@H](N)[C@H]1O")
"16 µg/mL"
>>> observed("NCC[C@H](O)C(=O)N[C@@H]1C[C@H](N)[C@@H](O[C@H]2O[C@H](CO)CC[C@H]2N)[C@H](O[C@@H]2O[C@H](CO)[C@@H](O[C@H]3O[C@@H](CN)[C@@H](O)[C@H](O)[C@H]3N)[C@H]2OCCNCCc2ccccc2)[C@H]1O")
"1 µg/mL"
>>> observed("CN[C@@H]1[C@@H](O)[C@@H](O[C@@H]2[C@@H](O)[C@H](O[C@H]3O[C@H]([C@@H](C)NC)CC[C@H]3N)[C@@H](N)C[C@H]2N)OC[C@]1(C)O")
"128 µg/mL"
>>> observed("NCC[C@H](O)C(=O)N[C@@H]1C[C@H](N)[C@@H](O[C@H]2O[C@H](CO)[C@@H](O)[C@H](O)[C@H]2N)[C@H](O[C@@H]2O[C@H](CO)[C@@H](O[C@H]3O[C@@H](CN)[C@@H](O)[C@H](O)[C@H]3N)[C@H]2O)[C@H]1O")
"> 128 µg/mL"

# input for lookup
QUERY: What MIC value was documented for this molecule, NCC[C@@H](O)C(=O)N[C@H]1C[C@H](N)[C@@H](O[C@H]2O[C@H](CO)[C@@H](O)[C@H](O)[C@H]2N)[C@@H](O[C@H]2O[C@H](CO)[C@@H](O[C@H]3O[C@@H](CN)[C@@H](O)[C@H](O)[C@H]3N)[C@H]2OCCNCCc2ccccc2)[C@H]1O ?
RESULT: > 128 µg/mL
